Biological target: Serine/threonine-protein kinase PAK 5 (Homo sapiens)
Conditions: at 1 µM
Description: GSK_PKIS: PAK5 mean inhibition at 1 uM [Nanosyn]
test readout: inhibition (%)
Expressed in %, but write only the number.

>>> value_observed("c1ccc(COc2ccc(Nc3ncnc4ccc(-c5ccco5)cc34)cc2)cc1")
-4.07
>>> value_observed("FC(F)(F)c1cccc(-c2nn3ncccc3c2-c2ccnc(Nc3ccc4c(c3)OCCO4)n2)c1")
-2.25
>>> value_observed("Cc1ccc(O)cc1Nc1ccnc2cc(-c3ccccn3)ccc12")
0.07
>>> value_observed("N#Cc1c(NC(=O)CN2CCOCC2)sc2c1CCCC2")
3.24
>>> value_observed("NS(=O)(=O)c1ccc(N/N=C2\\C(=O)Nc3ccc4ncccc4c32)cc1")
3.21
>>> value_observed("CCNC(=O)O[C@H]1CN[C@H](C#Cc2cc3ncnc(Nc4ccc(OCc5cccc(F)c5)c(Cl)c4)c3s2)C1")
2.54
>>> value_observed("COC(=O)Nc1nc2ccc(S(=O)(=O)c3ccc(NC(=O)Nc4cc(C(F)(F)F)ccc4F)cc3)cc2[nH]1")
-3.51
>>> value_observed("CNC(=O)c1cc(-c2ccc(F)cc2)cc(-c2ccc(S(=O)(=O)N3CCCC3)cc2)c1N")
3.67
>>> value_observed("CCN1CCC(CC(=O)Nc2n[nH]c3nnc(-c4cccc(F)c4F)cc23)CC1")
0.92

Query: Name the recorded inhibition for CNC(=O)c1cccc(C#Cc2cncnc2Nc2ccc(OCc3cccc(F)c3)c(Cl)c2)c1 .
Result: -2.53

---

This section presents compounds with their documented inhibition values.
Target: Platelet-derived growth factor receptor beta (Homo sapiens);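 further: reported value is the mean percent inhibition of the kinase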
Conditions: at 0.1 µM
Express your answer as a number followed by its unit.

Known inhibition results, listed for orientation:
>>> value_observed("COc1ccc2c(-c3ccnc(Nc4cccc(OC(F)(F)F)c4)n3)cnn2n1")
"4.02%"
>>> value_observed("COc1cc2ncn(-c3cc(OCc4ccccc4C(F)(F)F)c(C(=O)N(C)C)s3)c2cc1OC")
"6.2%"
>>> value_observed("CCn1c(-c2nonc2N)nc2cnc(Oc3cccc(NC(=O)c4ccc(N(C)C)cc4)c3)cc21")
"3.88%"
>>> value_observed("CN1CCC(n2cnc(-c3ccc(F)cc3)c2-c2ccnc(N)n2)CC1")
"4.26%"
>>> value_observed("Fc1cccc(COc2ccc(Nc3ncnc4sc(-c5ccco5)cc34)cc2Cl)c1")
"7.85%"
>>> value_observed("NC(=O)c1sc(-n2cnc3ccc(C(F)(F)F)cc32)cc1OCc1ccccc1Br")
"-1.07%"

Note: attention shifts to another entry.
Query: What measured inhibition goes with CCn1c(-c2nonc2N)nc2ccccc21 ?
Result: 2.55%

---

Biological target: Leucine-rich repeat serine/threonine-protein kinase 2 (Homo sapiens) (UniProt Q5S007);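 further: reported values are averaged percent inhibition of LRRK2 kinase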
Sequence (Q5S007 whole entry): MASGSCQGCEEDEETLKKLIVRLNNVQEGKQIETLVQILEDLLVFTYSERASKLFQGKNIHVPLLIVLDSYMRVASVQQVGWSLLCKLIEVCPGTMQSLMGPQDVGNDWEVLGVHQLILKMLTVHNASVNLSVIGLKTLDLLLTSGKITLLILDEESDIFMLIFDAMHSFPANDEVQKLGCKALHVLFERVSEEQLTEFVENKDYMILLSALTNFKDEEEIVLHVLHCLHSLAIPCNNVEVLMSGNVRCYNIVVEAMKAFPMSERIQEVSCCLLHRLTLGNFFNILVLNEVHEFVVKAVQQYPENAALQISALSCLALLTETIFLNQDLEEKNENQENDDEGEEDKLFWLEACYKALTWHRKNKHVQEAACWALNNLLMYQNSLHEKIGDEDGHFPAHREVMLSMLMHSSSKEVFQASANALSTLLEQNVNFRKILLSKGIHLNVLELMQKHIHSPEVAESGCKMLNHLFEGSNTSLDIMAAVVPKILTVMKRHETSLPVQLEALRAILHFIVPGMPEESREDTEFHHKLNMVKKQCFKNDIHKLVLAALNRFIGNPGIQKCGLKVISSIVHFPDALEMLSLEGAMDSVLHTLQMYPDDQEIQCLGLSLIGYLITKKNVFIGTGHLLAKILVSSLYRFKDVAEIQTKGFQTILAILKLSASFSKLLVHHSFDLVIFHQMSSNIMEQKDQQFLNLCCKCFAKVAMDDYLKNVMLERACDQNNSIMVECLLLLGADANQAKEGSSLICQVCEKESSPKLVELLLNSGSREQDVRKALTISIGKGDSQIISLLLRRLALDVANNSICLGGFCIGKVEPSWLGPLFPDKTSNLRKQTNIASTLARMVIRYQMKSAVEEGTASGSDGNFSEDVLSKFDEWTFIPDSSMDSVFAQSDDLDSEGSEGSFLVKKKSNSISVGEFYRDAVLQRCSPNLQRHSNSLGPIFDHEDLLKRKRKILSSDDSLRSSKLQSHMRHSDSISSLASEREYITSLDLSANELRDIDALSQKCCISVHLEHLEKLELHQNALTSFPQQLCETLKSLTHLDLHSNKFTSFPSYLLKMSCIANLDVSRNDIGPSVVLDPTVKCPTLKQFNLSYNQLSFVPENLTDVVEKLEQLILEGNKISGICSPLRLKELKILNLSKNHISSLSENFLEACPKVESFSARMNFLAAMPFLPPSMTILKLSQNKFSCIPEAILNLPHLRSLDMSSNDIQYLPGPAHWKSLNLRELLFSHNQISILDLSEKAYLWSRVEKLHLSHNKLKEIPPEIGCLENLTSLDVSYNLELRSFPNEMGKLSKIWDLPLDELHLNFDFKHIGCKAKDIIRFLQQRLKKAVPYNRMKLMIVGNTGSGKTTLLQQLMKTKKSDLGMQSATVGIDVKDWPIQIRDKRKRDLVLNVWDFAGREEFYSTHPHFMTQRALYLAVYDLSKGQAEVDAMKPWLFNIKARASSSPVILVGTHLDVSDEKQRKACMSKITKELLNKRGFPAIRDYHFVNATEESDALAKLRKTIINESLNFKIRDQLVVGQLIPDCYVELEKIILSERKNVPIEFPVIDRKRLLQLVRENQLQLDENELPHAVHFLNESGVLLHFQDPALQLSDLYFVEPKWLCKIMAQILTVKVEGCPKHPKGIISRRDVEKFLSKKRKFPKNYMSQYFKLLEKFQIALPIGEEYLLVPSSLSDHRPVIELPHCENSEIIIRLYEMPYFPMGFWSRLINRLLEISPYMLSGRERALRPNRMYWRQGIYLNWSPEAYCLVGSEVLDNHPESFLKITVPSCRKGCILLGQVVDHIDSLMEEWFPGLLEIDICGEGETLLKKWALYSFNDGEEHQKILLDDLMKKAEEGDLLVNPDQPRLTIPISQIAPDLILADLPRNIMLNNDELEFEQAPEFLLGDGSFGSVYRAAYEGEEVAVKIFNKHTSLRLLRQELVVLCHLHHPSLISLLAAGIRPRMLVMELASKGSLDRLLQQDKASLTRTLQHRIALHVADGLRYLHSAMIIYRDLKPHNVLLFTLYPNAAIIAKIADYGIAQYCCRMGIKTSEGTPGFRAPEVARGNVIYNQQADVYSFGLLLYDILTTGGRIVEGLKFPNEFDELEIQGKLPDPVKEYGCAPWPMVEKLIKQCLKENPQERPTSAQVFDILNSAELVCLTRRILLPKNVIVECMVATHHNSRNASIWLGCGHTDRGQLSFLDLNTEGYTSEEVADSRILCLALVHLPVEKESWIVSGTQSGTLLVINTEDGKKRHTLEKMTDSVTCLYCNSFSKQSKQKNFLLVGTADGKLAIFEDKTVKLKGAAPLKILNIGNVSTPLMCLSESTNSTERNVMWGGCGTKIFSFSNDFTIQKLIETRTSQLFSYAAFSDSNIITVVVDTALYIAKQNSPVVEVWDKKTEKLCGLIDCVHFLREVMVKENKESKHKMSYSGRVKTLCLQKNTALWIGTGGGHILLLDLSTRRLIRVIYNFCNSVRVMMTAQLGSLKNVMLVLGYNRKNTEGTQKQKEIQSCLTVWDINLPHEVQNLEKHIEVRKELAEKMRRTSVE
Conditions: at 0.1 µM
I would appreciate it if you labelled entries Criterion met when inhibition is 2% or higher, otherwise Criterion not met.

>>> class("NS(=O)(=O)c1ccc(Nc2ncc(-c3ccccc3)o2)cc1")
"Criterion met"
>>> class("COc1cc2ncn(-c3cc(OCc4ccccc4C(F)(F)F)c(C(=O)N(C)C)s3)c2cc1OC")
"Criterion met"
>>> class("CN1CCC(n2cnc(-c3ccc(F)cc3)c2-c2ccnc(N)n2)CC1")
"Criterion not met"
>>> class("Cc1ccc(O)cc1Nc1ccnc2cc(-c3ccccn3)ccc12")
"Criterion met"
>>> class("N#Cc1c(NC(=O)c2ccc(F)cc2)sc2c1CCCC2")
"Criterion not met"
>>> class("O=C(Nc1n[nH]c2cc(-c3ccc(F)cc3)ccc12)C1CC1")
"Criterion not met"
>>> class("CCCN(CCS(C)(=O)=O)Cc1ccc(-c2ccc3ncnc(Nc4ccc(OCc5cccc(F)c5)c(Cl)c4)c3c2)o1")
"Criterion met"
>>> class("CCn1c(-c2nonc2N)nc2cnc(Oc3cccc(NC(=O)c4ccc(N(C)C)cc4)c3)cc21")
"Criterion met"
>>> class("COc1ccc2c(-c3ccnc(Nc4cccc(OC(F)(F)F)c4)n3)cnn2n1")
"Criterion met"
>>> class("Clc1ccc(-c2nn3ncccc3c2-c2ccnc(Nc3ccccc3)n2)cc1")
"Criterion not met"

Query: Does the reported inhibition for c1ccc(-c2nc3n(c2-c2ccc4c(c2)OCO4)CCC3)nc1 fall at or above the 2% mark?
Result: Criterion not met

Query: Hello, I need to know if COC(=O)Nc1nc2ccc(Oc3ccc(NC(=O)Nc4cccc(Cl)c4)cc3)cc2[nH]1 has measured inhibition not below 2%. Thanks!
Result: Criterion met

Query: Entry CCOc1ccc2c(-c3ccnc(Nc4cccc(C(F)(F)F)c4)n3)cnn2n1 : is its inhibition no less than 2%?
Result: Criterion met

Query: Given the entry CCN1CCC(CC(=O)Nc2n[nH]c3nnc(-c4cccc(F)c4F)cc23)CC1 , answer whether its inhibition meets or surpasses 2%.
Result: Criterion met

Query: Form field: inhibition at least 2%? Entry: CNC(=O)c1cc(-c2ccc(F)cc2)cc(-c2ccc(S(=O)(=O)N3CCCC3)cc2)c1N
Result: Criterion not met

Query: Identify whether the reported inhibition of the following molecule is 2% or greater: CC(C)COC(=O)c1ccc2c(c1)/C(=C/Nc1ccc(S(N)(=O)=O)cc1)C(=O)N2
Result: Criterion met

Query: hey, is inhibition for this one >= 2%? Nc1nc(-c2cccc(Cl)c2)c(-c2ccc3ncccc3n2)s1
Result: Criterion met

Query: Reported inhibition reaches at least 2% for COc1ccc(-c2cc(-c3c[nH]nc3-c3ccccn3)ccn2)cc1 ?
Result: Criterion met

Query: Please indicate if the recorded inhibition for CCn1c(-c2nonc2N)nc2c(C#CC(C)(C)O)ncc(OC3CCNCC3)c21 meets or exceeds 2%.
Result: Criterion not met

Query: Is inhibition at least 2%? Consider COC(=O)Nc1nc2ccc(S(=O)(=O)c3ccc(NC(=O)Nc4cc(C(F)(F)F)ccc4F)cc3)cc2[nH]1
Result: Criterion met

Query: Is inhibition at least 2%? Consider CNC(=O)c1cncc(/C=C/c2ccccc2Cl)c1
Result: Criterion met

Query: Does the reported inhibition for CCNC(=O)O[C@H]1CN[C@H](C#Cc2cc3ncnc(Nc4ccc(OCc5cccc(F)c5)c(Cl)c4)c3s2)C1 fall at or above the 2% mark?
Result: Criterion met

Query: API: above_or_equal(metric=inhibition, cutoff=2%) for item Cc1cccc(Nc2ncc(-c3ccccc3)o2)c1
Result: Criterion not met

Query: Say whether CC(=O)NCc1cccc(C#Cc2cncnc2Nc2ccc(OCc3cccc(F)c3)c(Cl)c2)c1 shows inhibition of 2% or more.
Result: Criterion not met

Query: Entry CC(C)(CO)CNC(=O)c1ccc2c(c1)/C(=N/Nc1ccc(S(N)(=O)=O)cc1)C(=O)N2 : is its inhibition no less than 2%?
Result: Criterion met

Query: Given the entry O=C(O[C@H]1CN[C@H](C#Cc2cc3ncnc(Nc4ccc(Cc5ccccc5)cc4)c3s2)C1)N1CCOCC1 , answer whether its inhibition meets or surpasses 2%.
Result: Criterion not met

Query: Determine whether this molecule has inhibition no lower than 2%: Cc1cccc2c1NC(=O)/C2=N\Nc1ccc(S(N)(=O)=O)cc1
Result: Criterion met

Query: Please tell me: is the molecule CCc1nn2ncccc2c1-c1ccnc(NC2CC2)n1 at or over 2% in terms of inhibition?
Result: Criterion not met

Query: Is the recorded value of inhibition equal to or greater than 2% for this molecule? CC1=C(C(=O)Nc2cc(Cl)c3[nH]ncc3c2)C(c2ccc(C(F)(F)F)cc2)CC(=O)N1 (centres undefined)
Result: Criterion met

Query: Assess whether reported inhibition for Fc1ccc(-c2nn3ncccc3c2-c2ccnc(Nc3ccc4c(c3)OCCO4)n2)cc1 sits at 2% or higher.
Result: Criterion met

Query: Does the reported inhibition for FC(F)(F)c1cccc(-c2nn3ncccc3c2-c2ccnc(Nc3ccc4c(c3)OCCO4)n2)c1 fall at or above the 2% mark?
Result: Criterion met

Query: Is reported inhibition greater than or equal to 2% here: COc1ccc2[nH]c3c4[nH]c5ccc(OC)cc5c4c4c(c3c2c1)C(=O)NC4=O
Result: Criterion met
